TARGET_DESC: recombinant human FLAP protein (Homo sapiens, UniProt P20292)
Construct: made in house; host or cells: Sf9 insect cells (100,000×g membrane pellet used)
Sequence (P20292 whole entry): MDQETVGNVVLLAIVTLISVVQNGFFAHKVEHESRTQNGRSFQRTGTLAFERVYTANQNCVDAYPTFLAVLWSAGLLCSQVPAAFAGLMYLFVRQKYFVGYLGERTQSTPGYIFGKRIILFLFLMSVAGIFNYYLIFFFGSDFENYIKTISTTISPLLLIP
TEST_DETAILS: FLAP binding assay (SPA, displacement of [125I]L-691,831)
EXPERIMENTAL_CONDITIONS: membranes of sf9 cells expressing recombinant human FLAP; [125I]L-691,831 probe; read-out: FLAP binding IC50
A collection of compounds and their measured IC50
Could you give me the number in nM? Just the number is fine.

The cases that follow already have their IC50 on record.
COMPOUND	IC50 [nM]
CC(C)C(C)(c1ccc(-c2cnc(N)nc2)cc1)c1noc(NCCO)n1 (stereo not shown)	23
CN(C)C(=O)Cn1cc(-c2nc(C(C)(c3ccc(-c4ccc(F)nc4N)cc3)C3CC3)no2)cn1 (stereo not shown)	64
CO[C@@H]1CCN(C(=O)Cn2cc(-c3nc([C@@](C)(c4ccc(-c5cnc(N)nc5)cc4)C4CC4)no3)cn2)C1	8.5

Now consider the entry below.
Lookup: Looking for the measured IC50 of CC(C)C(C)(c1ccc(-c2cnc(N)nc2)cc1)c1noc(C2CCCCC2)n1 (stereo not shown) , can you help?
Found: 9.2
